Tested on: NCI-H841 complex tumor spheroid viability
Assay: Anticancer human tumor NCI-H841 cell line growth inhibition; active = viability on the fitted dose curve at most 10% of control; inactive = the rest;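 note: spheroids exposed to compounds for 7 days before readout; 100% = DMSO vehicle control wells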
Conditions: second compound 0.00949 µM; first compound 0.1 µM
Give your call using only these classes: true (1) = active, false (0) = inactive

Compound | Group Label
CC1COCCN1c1cc(-c2ccnn2C)c2ccnc(-c3ccn[nH]3)c2n1 (stereo unspecified) + CC[C@@]1(O)C(=O)OCc2c1cc1n(c2=O)Cc2cc3c(CN(C)C)c(O)ccc3nc2-1 | true (1)
[2H]c1nc(C)nc([2H])c1-c1cc(NC[C@@H](C)c2cccc3c(C(=O)NC)ccnc23)ncn1 + CC[C@@]1(O)C(=O)OCc2c1cc1n(c2=O)Cc2cc3c(CN(C)C)c(O)ccc3nc2-1 | false (0)
CC(C)n1c(=O)n(C)c2cnc3cc(F)c(-c4ccc(OCCCN5CCCCC5)nc4)cc3c21 + CC[C@@]1(O)C(=O)OCc2c1cc1n(c2=O)Cc2cc3c(CN(C)C)c(O)ccc3nc2-1 | true (1)
Cc1cc(C)c(CNC(=O)c2cc(-c3ccc(CN4CCOCC4)cc3)cc3c2cnn3C2CCCC2)c(=O)[nH]1 + CC[C@@]1(O)C(=O)OCc2c1cc1n(c2=O)Cc2cc3c(CN(C)C)c(O)ccc3nc2-1 | false (0)
COc1ccc([C@@H](O)c2cc(-c3ncnc4cc(N5CCOCC5)ccc34)c(F)cc2Cl)nn1 + CC[C@@]1(O)C(=O)OCc2c1cc1n(c2=O)Cc2cc3c(CN(C)C)c(O)ccc3nc2-1 | false (0)

Continue with the next compound.
Record request — test call for COc1cc(C)[nH]c(=O)c1CN1CCc2c(Cl)cc(C(OC)C3COC3)c(Cl)c2C1=O (stereo unspecified) + CC[C@@]1(O)C(=O)OCc2c1cc1n(c2=O)Cc2cc3c(CN(C)C)c(O)ccc3nc2-1
false (0)

---

In this section we review reported viability, T/C values for a set of compounds.
System: NCI-H841 complex tumor spheroid viability
Test: Anticancer human tumor NCI-H841 cell line growth inhibition;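 note: spheroids exposed to compounds for 7 days before readout; 100% = DMSO vehicle control wells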
Conditions: second compound 94.9 pM; first compound 3 µM; stronger effect = lower value
Response body: numeric value in %, unit text excluded.

Take a look at these entries with their results.
Compound | viability, T/C, %
O=C(c1cc(Cc2n[nH]c(=O)c3ccccc23)ccc1F)N1CCN(C(=O)C2CC2)CC1 + COc1cc2c(cc1O)CCNC21CSC2c3c(OC(C)=O)c(C)c4c(c3C(COC1=O)N1C(O)C3Cc5cc(C)c(OC)c(O)c5C(C21)N3C)OCO4 | 52.1
Cc1sc2c(c1C)C(c1ccc(Cl)cc1)=NC(CC(=O)Nc1ccc(O)cc1)c1nnc(C)n1-2 (centres undefined) + COc1cc2c(cc1O)CCNC21CSC2c3c(OC(C)=O)c(C)c4c(c3C(COC1=O)N1C(O)C3Cc5cc(C)c(OC)c(O)c5C(C21)N3C)OCO4 | 2.65
CNCc1ccc(-c2cc(-c3nc(-c4ccc(S(=O)(=O)C(C)C)cc4)cnc3N)on2)cc1 + COc1cc2c(cc1O)CCNC21CSC2c3c(OC(C)=O)c(C)c4c(c3C(COC1=O)N1C(O)C3Cc5cc(C)c(OC)c(O)c5C(C21)N3C)OCO4 | 1.05

For the next question, use this compound.
For Cn1ncnc1[C@H]1c2n[nH]c(=O)c3cc(F)cc(c23)N[C@@H]1c1ccc(F)cc1 + COc1cc2c(cc1O)CCNC21CSC2c3c(OC(C)=O)c(C)c4c(c3C(COC1=O)N1C(O)C3Cc5cc(C)c(OC)c(O)c5C(C21)N3C)OCO4 , what is its reported viability, T/C?
1.19
